tested on: E. coli ATCC 25922; assay type: cell-based, Escherichia coli; settings: UTBLP alone, plate with novobiocin
Non-standard residues stand in square brackets, D forms with d. Residues, ends and D or L forms follow the SMILES beside them. *: point of attachment. Lys(Me2) = CN(C)CCCC[C@H](N)C(=O)O; Lys(Me) = CNCCCC[C@H](N)C(=O)O; Octanoyl = CCCCCCCC(=O)*
For each record, write down the corresponding MICUTBLP.
Report the figure in µg/mL without appending any unit label.

Simply: CCCCCCCC(=O)NCCCC[C@H](NC(=O)CCCCCCC)C(=O)N[C@@H](CCCCNC)C(=O)N[C@@H](CCCCNC)C(=O)N[C@@H](CCCCNC)C(=O)N[C@@H](CCCCNC)C(N)=O [UTBLP 6] (Octanoyl-K(Octanoyl)[Lys(Me)][Lys(Me)][Lys(Me)][Lys(Me)]-NH2) , E. coli ATCC 25922, MICUTBLP = 32

Simply: CCCCCCCC(=O)NCCCC[C@H](NC(=O)CCCCCCC)C(=O)N[C@@H](CCCCN(C)C)C(=O)N[C@@H](CCCCN(C)C)C(=O)N[C@@H](CCCCN(C)C)C(=O)N[C@@H](CCCCN(C)C)C(N)=O [UTBLP 7] (Octanoyl-K(Octanoyl)[Lys(Me2)][Lys(Me2)][Lys(Me2)][Lys(Me2)]-NH2) , E. coli ATCC 25922, MICUTBLP = 64

Simply: CCCCCCCC(=O)NCCCC[C@H](NC(=O)CCCCCCC)C(=O)N[C@@H](CCCCN)C(=O)N[C@@H](CCCCN)C(=O)N[C@@H](CCCCN)C(=O)N[C@@H](CCCCN)C(N)=O [UTBLP 5] (Octanoyl-K(Octanoyl)KKKK-NH2) , E. coli ATCC 25922, MICUTBLP = 64
